measuredTarget: T1, Human CD3eg linker (human)
T1 construct: Single chain: epsilon and gamma subunits of human CD3 joined by a 29-mer linker, Flag-tag at the C-terminus; also called recombinant human CD3
T1 chain: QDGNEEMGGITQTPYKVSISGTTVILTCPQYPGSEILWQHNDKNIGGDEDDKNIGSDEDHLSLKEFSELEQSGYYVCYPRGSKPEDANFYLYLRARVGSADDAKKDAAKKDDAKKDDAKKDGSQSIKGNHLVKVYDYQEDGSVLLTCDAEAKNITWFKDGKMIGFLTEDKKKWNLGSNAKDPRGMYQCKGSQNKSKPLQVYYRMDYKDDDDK
assayComment: Biacore SPR, vs template H183/L072
propertyName: fold change of affinity (fold)
The answer is to be given in fold; state only the numeric part.

- binder: "H183/L072 VH H35P (antibody, name in Kabat numbering, V domains shown) VH: QVQLVESGGGLVQPGRSLRLSCAASGFTFSNAWMPWVRQAPGKGLEWVAQIKDKGNAYAAYYAPSVKGRFTISRDDSKNSIYLQMNSLKTEDTAVYYCHYVHYASASTVLPAFGVDAWGQGTTVTVSS VL: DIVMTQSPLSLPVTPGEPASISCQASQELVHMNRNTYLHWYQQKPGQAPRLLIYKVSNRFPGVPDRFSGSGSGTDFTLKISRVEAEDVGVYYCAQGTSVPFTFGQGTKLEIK"
  unitString: "fold"
  fold change of affinity: 0

From here, focus on the item given below.
Give its fold change of affinity value. Item: H183/L072 VH Y59H (antibody, name in Kabat numbering, V domains shown) VH: QVQLVESGGGLVQPGRSLRLSCAASGFTFSNAWMHWVRQAPGKGLEWVAQIKDKGNAYAAYHAPSVKGRFTISRDDSKNSIYLQMNSLKTEDTAVYYCHYVHYASASTVLPAFGVDAWGQGTTVTVSS VL: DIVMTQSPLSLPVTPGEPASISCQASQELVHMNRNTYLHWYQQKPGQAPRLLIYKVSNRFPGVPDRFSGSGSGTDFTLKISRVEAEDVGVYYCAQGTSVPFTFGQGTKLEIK
1.4
